- assayTarget: guinea pig Opioid, Kappa 1 Receptor (OpiateK), OPRK1 (gene 100135587) (UniProt P41144)
- Sequence (P41144 whole entry, looked up): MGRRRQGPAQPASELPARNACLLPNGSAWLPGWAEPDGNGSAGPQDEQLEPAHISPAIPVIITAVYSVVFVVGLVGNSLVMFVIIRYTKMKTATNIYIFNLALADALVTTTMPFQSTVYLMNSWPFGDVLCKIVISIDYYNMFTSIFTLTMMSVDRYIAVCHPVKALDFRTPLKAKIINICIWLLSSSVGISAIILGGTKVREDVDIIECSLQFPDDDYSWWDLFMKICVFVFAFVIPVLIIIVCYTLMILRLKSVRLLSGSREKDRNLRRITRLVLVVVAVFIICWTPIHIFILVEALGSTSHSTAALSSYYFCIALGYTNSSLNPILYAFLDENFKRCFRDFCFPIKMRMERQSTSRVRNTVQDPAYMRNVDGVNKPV
- methodDescription: NVS_GPCR_gOpiateK: NovaScreen (NVS) G Protein-Coupled Receptor Assay for guinea pig Opioid, Kappa 1 Receptor (OpiateK) (AID 2283252);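 further: radioligand displacement from kappa opioid receptor in guinea pig cerebellar membranes; active means reduced radioligand binding relative to DMSO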
Inconclusive results are not listed. Calls of active or inactive are those of the source. How the source made its calls: active means hit-call score of the fitted dose curve at least 0.9, where 1 is the maximum; inconclusive means response in the unintended direction; inactive means score below 0.9.
API: response.call in active, inactive

CC1COC(Cn2cncn2)(c2ccc(Oc3ccc(Cl)cc3)cc2Cl)O1 (centres undefined); inactive
OC(c1ccc(Cl)cc1)(c1cncnc1)c1ccccc1Cl (centres undefined); active
CS/C(C)=N/OC(=O)N(C)SN(C)C(=O)O/N=C(\C)SC; active

Please look at the following molecule next.
## Input Test call, this molecule: CO/C=C(/C(=O)OC)c1ccccc1Oc1cc(Oc2ccccc2C#N)ncn1
## Output active
